# System: common ragweed (Ambrosia elatior)
# METHOD NOTES: Test C postemergence
# Type: in vivo
# CONDITION DETAILS: Rate 250 g/ha, scale 0 to 100 (0 no effect, 100 complete control)
MEASURED ENDPOINT: Plant response rating, Ragweed, Common
One number for each entry.

Worked cases, Plant response rating, Ragweed, Common given:
{"COMPOUND": "COc1cc(N2CCC(n3ccc(C(C)(C)C)n3)C2=O)ccc1Br (stereo not shown)", "Plant response rating, Ragweed, Common": 80}
{"COMPOUND": "CCC(C)c1ccn(C2SCN(c3cccc(C(F)(F)F)c3)C2=O)n1 (stereo not shown)", "Plant response rating, Ragweed, Common": 30}
{"COMPOUND": "CC(C)(C)c1ccn(C2SCN(c3cccc(OC(F)F)c3)C2=O)n1 (stereo not shown)", "Plant response rating, Ragweed, Common": 30}

Then there is this compound:
Just so you know, measured Plant response rating, Ragweed, Common for CCC(CC)c1ccn(C2SCN(c3cccc(C(F)(F)F)c3)C2=O)n1 (stereo not shown) came out at 30

* * *

# Test system: rice (Oryza saliva)
# METHOD NOTES: Test C flooded paddy test
# Type: in vivo
# CONDITION DETAILS: Flooded Paddy; Rate 500 g/ha; scale 0 to 100, 0 no effect, 100 complete control
MEASURED ENDPOINT: Rice plant response rating
Numbers only.

{"COMPOUND": "CC(C)(C)c1ccn(C2OCN(c3cccc(OC(F)(F)F)c3)C2=O)n1 (centres unmarked)", "Rice plant response rating": 100}
{"COMPOUND": "COc1cc(N2CCC(n3ccc(C(C)C)n3)C2=O)ccc1C (centres unmarked)", "Rice plant response rating": 100}
{"COMPOUND": "CC(C)c1ccn(C2OCN(c3cccc(C(F)(F)F)c3)C2=O)n1 (centres unmarked)", "Rice plant response rating": 70}

Give Rice plant response rating for all compounds that follow.
1. O=C1C(n2ccc(C3CCC3)n2)SCN1c1cccc(C(F)(F)F)c1 (centres unmarked)
2. CCC(C)c1ccn(C2OCN(c3cccc(C(F)(F)F)c3)C2=O)n1 (centres unmarked)

1: 90; 2: 60

* * *

# Tested on: woolly cupgrass (Eriochloa villosa)
# METHOD NOTES: Test C preemergence
# Format: in vivo
# CONDITION DETAILS: Rate 62 g/ha; scale 0 to 100, 0 no effect, 100 complete control
# Excerpt: […]
Kindly supply the reported Plant response rating, Cupgrass, Woolly values for the records listed here.
Answers are plain numbers.

Worked cases, Plant response rating, Cupgrass, Woolly given:
{"COMPOUND": "CC(C)(C)c1ccn(C2CCN(c3cccc(OC(F)(F)F)c3)C2=O)n1 (centres unmarked)", "STUDY SYSTEM": "woolly cupgrass (Eriochloa villosa)", "Plant response rating, Cupgrass, Woolly": 30}
{"COMPOUND": "CC(C)(C)c1ccn(C2SCN(c3cccc(OC(F)(F)F)c3)C2=O)n1 (centres unmarked)", "STUDY SYSTEM": "woolly cupgrass (Eriochloa villosa)", "Plant response rating, Cupgrass, Woolly": 70}
{"COMPOUND": "CCC(C)c1ccn(C2SCN(c3cccc(OC(F)(F)F)c3)C2=O)n1 (centres unmarked) [Compound 40]", "STUDY SYSTEM": "woolly cupgrass (Eriochloa villosa)", "Plant response rating, Cupgrass, Woolly": 60}
{"COMPOUND": "CC(C)c1ccn(C2OCN(c3cccc(C(F)(F)F)c3)C2=O)n1 (centres unmarked)", "STUDY SYSTEM": "woolly cupgrass (Eriochloa villosa)", "Plant response rating, Cupgrass, Woolly": 50}

Just so you know, measured Plant response rating, Cupgrass, Woolly for COc1cc(OC)cc(N2CCC(n3ccc(C(C)(C)C)n3)C2=O)c1 (centres unmarked) came out at 0

* * *

# System: yellow nutsedge (Cyperus esculentus)
# METHOD NOTES: Test C preemergence
# Type: in vivo
# CONDITION DETAILS: preemergence, Rate 500 g/ha, visual evaluation after 12 to 14 days
MEASURED ENDPOINT: Plant response rating (0 to 100), Nutsedge
Give bare numbers.

{"COMPOUND": "CCCC(C)c1ccn(C2OCN(c3cccc(OC(F)F)c3)C2=O)n1 (stereo not drawn) [Compound 132]", "RECORDED VALUE": 90}
{"COMPOUND": "CC(C)Oc1cccc(N2CCC(n3ccc(C(C)(C)C)n3)C2=O)c1 (stereo not drawn) [Compound 70]", "RECORDED VALUE": 0}
{"COMPOUND": "CCCC(C)c1ccn(C2CCN(c3cccc(OCC)c3)C2=O)n1 (stereo not drawn) [Compound 129]", "RECORDED VALUE": 90}

Give Plant response rating (0 to 100), Nutsedge for all compounds that follow.
1. CCC(C)c1ccn(C2CCN(c3cccc(OC(C)C)c3)C2=O)n1 (stereo not drawn) [Compound 83]
2. CCC(C)c1ccn(C2CCN(c3cccc(OC)c3)C2=O)n1 (stereo not drawn) [Compound 95]
3. CCCC(C)c1ccn(C2OCN(c3cccc(C(F)(F)F)c3)C2=O)n1 (stereo not drawn) [Compound 89]
4. CCOC(=O)c1cccc(N2CCC(n3ccc(C(C)(C)C)n3)C2=O)c1 (stereo not drawn) [Compound 72]
5. CC(C)(C)c1ccn(C2CCN(c3cccc(OC(F)F)c3)C2=O)n1 (stereo not drawn) [Compound 76]
6. CCCOc1cc(N2CCC(n3ccc(C(C)(C)C)n3)C2=O)ccc1C (stereo not drawn) [Compound 107]

1. 0
2. 70
3. 0
4. 20
5. 20
6. 0

Give Plant response rating (0 to 100), Nutsedge for all compounds that follow.
1. CCC(C)Oc1cccc(N2CCC(n3ccc(C(C)(C)C)n3)C2=O)c1 (stereo not drawn) [Compound 127]
2. COc1cc(N2CCC(n3ccc(C(C)C)n3)C2=O)ccc1Br (stereo not drawn) [Compound 140]

1. 0
2. 70

Just so you know, measured Plant response rating (0 to 100), Nutsedge for CC(C)(C)c1ccn(C2CCN(c3cccc(I)c3)C2=O)n1 (stereo not drawn) [Compound 88] came out at 10

* * *

# System: smallflower flatsedge (Cyperus difformis)
# METHOD NOTES: Test C flooded paddy test
# Format: in vivo
# CONDITION DETAILS: Flooded Paddy; Rate 500 g/ha; scale 0 to 100, 0 no effect, 100 complete control
MEASURED ENDPOINT: Flatsedge plant response rating
Answers are plain numbers.

Worked cases, Flatsedge plant response rating given:
{"COMPOUND": "CC(C)c1ccn(C2OCN(c3cccc(C(F)(F)F)c3)C2=O)n1 (centres unmarked)", "STUDY SYSTEM": "smallflower flatsedge (Cyperus difformis)", "RECORDED VALUE": 100}
{"COMPOUND": "O=C1C(n2ccc(C3CC3)n2)CCN1c1cccc(C(F)(F)F)c1 (centres unmarked)", "STUDY SYSTEM": "smallflower flatsedge (Cyperus difformis)", "RECORDED VALUE": 100}
{"COMPOUND": "CCCCC(C)c1ccn(C2OCN(c3cccc(C(F)(F)F)c3)C2=O)n1 (centres unmarked)", "STUDY SYSTEM": "smallflower flatsedge (Cyperus difformis)", "RECORDED VALUE": 90}

Give Flatsedge plant response rating for all compounds that follow.
1. CCCC(C)c1ccn(C2CCN(c3cccc(OC)c3)C2=O)n1 (centres unmarked)
2. CC(C)(C)c1ccn(C2CCN(c3cccc(S(C)(=O)=O)c3)C2=O)n1 (centres unmarked)
3. CCC(CC)c1ccn(C2OCN(c3cccc(OC(F)(F)F)c3)C2=O)n1 (centres unmarked)
4. COc1cc(N2CCC(n3ccc(C(C)C)n3)C2=O)ccc1Cl (centres unmarked)
5. CCC(CC)c1ccn(C2CCN(c3cccc(OC(C)C)c3)C2=O)n1 (centres unmarked)
6. CCCC(C)c1ccn(C2SCN(c3cccc(OC(F)(F)F)c3)C2=O)n1 (centres unmarked)

[100, 60, 100, 100, 100, 100]

* * *

Kindly supply the reported Plant response rating, Surinam grass values for the records listed here.
# System: Surinam grass (Brachiaria decumbens)
# METHOD NOTES: Test B preemergence
# Assay type: in vivo
# CONDITION DETAILS: Preemergence, Rate 500 g/ha; scale 0 to 100, 0 no effect, 100 complete control
Numbers only.

Worked cases, Plant response rating, Surinam grass given:
{"COMPOUND": "CC(C)c1ccn(C2SCN(c3cccc(OC(F)(F)F)c3)C2=O)n1 (centres unmarked)", "Plant response rating, Surinam grass": 70}
{"COMPOUND": "CCC(CC)c1ccn(C2CCN(c3ccc(F)c(C(F)(F)F)c3)C2=O)n1 (centres unmarked)", "Plant response rating, Surinam grass": 70}
{"COMPOUND": "CCC(C)c1ccn(C2CCN(c3cccc(OC)c3)C2=O)n1 (centres unmarked)", "Plant response rating, Surinam grass": 90}
{"COMPOUND": "CC(C)(C)c1ccn(C2CCN(c3cccc(Br)c3)C2=O)n1 (centres unmarked)", "Plant response rating, Surinam grass": 60}

Give Plant response rating, Surinam grass for all compounds that follow.
1. O=C1C(n2ccc(C3CCCCC3)n2)SCN1c1cccc(OC(F)(F)F)c1 (centres unmarked)
2. O=C1C(n2ccc(C3CC3)n2)SCN1c1cccc(C(F)(F)F)c1 (centres unmarked)
3. CC(C)(C)c1ccn(C2CCN(c3cccc(OC(F)(F)F)c3)C2=O)n1 (centres unmarked)
4. Cc1cccc(N2CCC(n3ccc(C(C)(C)C)n3)C2=O)c1 (centres unmarked)
5. CC1(c2ccn(C3OCN(c4cccc(C(F)(F)F)c4)C3=O)n2)CC1 (centres unmarked)
6. CC(C)(C)c1ccn(C2SCN(c3cccc(C(F)(F)F)c3)C2=O)n1 (centres unmarked)
7. O=C1C(n2ccc(C3CCC3)n2)SCN1c1cccc(OC(F)F)c1 (centres unmarked)
8. CC(C)c1ccn(C2OCN(c3cccc(OC(F)(F)F)c3)C2=O)n1 (centres unmarked)

1: 30; 2: 70; 3: 0; 4: 30; 5: 0; 6: 0; 7: 80; 8: 20

Give Plant response rating, Surinam grass for all compounds that follow.
1. CC(C)(C)c1ccn(C2SCN(c3cccc(OC(F)(F)F)c3)C2=O)n1 (centres unmarked)
2. CCCC(C)c1ccn(C2SCN(c3cccc(OC(F)(F)F)c3)C2=O)n1 (centres unmarked)
3. COc1cc(N2CCC(n3ccc(C(C)C)n3)C2=O)ccc1Br (centres unmarked)
4. CCC(C)c1ccn(C2SCN(c3cccc(OC(F)(F)F)c3)C2=O)n1 (centres unmarked)
5. COc1cc(N2CCC(n3ccc(C(C)(C)C)n3)C2=O)ccc1C (centres unmarked)
6. CC(C)Oc1ccn(C2CCN(c3cccc(C(F)(F)F)c3)C2=O)n1 (centres unmarked)
7. CC(C)(C)c1ccn(C2CCN(c3cccc(C#N)c3)C2=O)n1 (centres unmarked)
8. CCCC(C)c1ccn(C2CCN(c3cccc(C(F)(F)F)c3)C2=O)n1 (centres unmarked)

1: 60; 2: 80; 3: 100; 4: 90; 5: 100; 6: 80; 7: 0; 8: 20

Give Plant response rating, Surinam grass for all compounds that follow.
1. O=C1C(n2ccc(C3CC3)n2)OCN1c1cccc(C(F)(F)F)c1 (centres unmarked)
2. Cc1ccc(N2CCC(n3ccc(C(C)(C)C)n3)C2=O)cc1OC(C)C (centres unmarked)
3. CC(C)(C)c1ccn(C2SCN(c3cccc(OC(F)F)c3)C2=O)n1 (centres unmarked)
4. CC(C)(C)c1ccn(C2OCN(c3cccc(OC(F)(F)F)c3)C2=O)n1 (centres unmarked)

1. 70
2. 40
3. 100
4. 20

Give Plant response rating, Surinam grass for all compounds that follow.
1. Cc1cn(C2CCN(c3cccc(C(F)(F)F)c3)C2=O)nc1C(C)C (centres unmarked)
2. CC(C)(C)c1ccn(C2CCN(c3ccc(Cl)c(Cl)c3)C2=O)n1 (centres unmarked)

1. 0
2. 20

These measurements were taken from patent US7138361B2.
